target-system: Cannabinoid receptor 1 (Homo sapiens, UniProt P21554)
Sequence (P21554 whole entry): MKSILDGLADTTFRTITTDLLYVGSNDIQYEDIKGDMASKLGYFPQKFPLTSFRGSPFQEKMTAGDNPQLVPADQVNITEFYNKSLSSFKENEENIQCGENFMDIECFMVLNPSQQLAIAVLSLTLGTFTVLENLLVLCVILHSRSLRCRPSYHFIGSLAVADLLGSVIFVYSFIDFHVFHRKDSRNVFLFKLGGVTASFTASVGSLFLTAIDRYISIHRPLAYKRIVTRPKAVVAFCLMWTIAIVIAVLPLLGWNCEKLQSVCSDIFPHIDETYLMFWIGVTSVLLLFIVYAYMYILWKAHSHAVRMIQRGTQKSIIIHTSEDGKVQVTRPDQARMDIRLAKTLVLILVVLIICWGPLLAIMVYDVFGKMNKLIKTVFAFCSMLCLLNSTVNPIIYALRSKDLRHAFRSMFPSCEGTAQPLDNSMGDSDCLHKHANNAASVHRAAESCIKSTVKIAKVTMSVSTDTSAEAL
protocol-description: Displacement of [3H]CP55940 from recombinant human CB1R expressed in HEK293 cell membranes at 10 uM incubated for 90 mins relative to control
Active and inactive are the calls of the source. No cut-off for these calls is given here.
quantity-measured: Activity

1) O=C(NCC1CCCCC1)c1nc2ccccc2s1 = Active
2) CCCCCn1/c(=N/C(=O)c2cccc3ccccc23)sc2ccccc21 = Active
3) Cc1nc(-c2ccccc2)sc1C(=O)NCC1CCCCC1 = Active
4) Cc1nc(C)c(C(=O)NC2CCCc3ccccc32)s1 (stereo not given) = Active
5) O=C(NCc1ccccc1)c1nc2ccccc2s1 = Active
6) CCCCCn1/c(=N/C(=O)c2ccc(C(F)(F)F)cc2)sc2ccccc21 = Active
7) Cc1nc(-c2ccccc2)sc1C(=O)NC1CCCCC1 = Active
8) Cc1nc(-c2ccccc2)sc1C(=O)NC12CC3CC(CC(C3)C1)C2 = Active
9) CCCCCn1/c(=N/C(=O)c2cccc(C(F)(F)F)c2)sc2ccccc21 = Active
10) Cc1nc(C)c(C(=O)NC23CC4CC(CC(C4)C2)C3)s1 = Active
11) O=C(Nc1nc2ccccc2s1)c1cccc(C(F)(F)F)c1 = Active
12) Cc1nc(C(C)(C)C)sc1C(=O)NC12CC3CC(CC(C3)C1)C2 = Active
13) Cc1nc(-c2ccccc2)sc1C(=O)NC1CCCc2ccccc21 (stereo not given) = Active
14) Cc1nc(-c2ccccc2)sc1C(=O)N1CCOCC1 = Active
15) Cc1nc(-c2ccccc2)sc1C(=O)NC1CCCC1 = Active
16) O=C(NC12CC3CC(CC(C3)C1)C2)c1nc2ccccc2s1 = Active
17) Cc1nc(-c2ccccc2)sc1C(=O)NCc1ccccc1F = Active
18) Cc1nc(-c2ccccc2)sc1C(=O)NC1CC1 = Active
19) O=C(Nc1nc2ccccc2s1)C12CC3CC(CC(C3)C1)C2 = Active
20) CCCCNC(=O)c1sc(-c2ccccc2)nc1C = Active
21) O=C(Nc1nc2ccccc2s1)c1cccc2ccccc12 = Active
22) CCCCCCNC(=O)c1sc(-c2ccccc2)nc1C = Active
23) Cc1nc(-c2ccccc2)sc1C(=O)NCc1ccccc1 = Active
24) Cc1nc(-c2ccccc2)sc1C(=O)NCc1ccccc1Cl = Active
25) Cc1nc(C)c(C(=O)NCc2ccccc2)s1 = Active

###

target-system: Cannabinoid receptor 1 (Homo sapiens)
protocol-description: Agonist activity at N-terminal Flag epitope tagged CB1 (unknown origin) expressed in HTLA cells assessed as increase of beta-arrestin recruitment by Tango assay
Type: cell-based
quantity-measured: EC50

1) O=C(NCC1CCCCC1)c1nc2ccccc2s1 = > 30 µM
2) O=C(Nc1nc2ccccc2s1)c1cccc(C(F)(F)F)c1 = > 30 µM
3) O=C(NCc1ccccc1Cl)c1nc2ccccc2s1 = > 30 µM
4) CCCCCn1/c(=N/C(=O)c2ccc(C(F)(F)F)cc2)sc2ccccc21 = > 30 µM
5) Cc1nc(C)c(C(=O)NC23CC4CC(CC(C4)C2)C3)s1 = > 30 µM
6) O=C(Nc1nc2ccccc2s1)c1ccc(C(F)(F)F)cc1 = > 30 µM
7) CCCCCCNC(=O)c1sc(-c2ccccc2)nc1C = > 30 µM
8) O=C(NCc1ccccc1)c1nc2ccccc2s1 = > 30 µM
9) O=C(Nc1ccc2ccccc2c1)c1nc2ccccc2s1 = > 30 µM
10) CCCCNC(=O)c1sc(-c2ccccc2)nc1C = > 30 µM
11) Cc1nc(-c2ccccc2)sc1C(=O)NCc1ccccc1F = > 30 µM
12) Cc1nc(C)c(C(=O)NCc2ccccc2)s1 = > 30 µM
13) CCCCCn1/c(=N/C(=O)c2cccc3ccccc23)sc2ccccc21 = 0.126 µM
14) Cc1nc(-c2ccccc2)sc1C(=O)NCc1ccccc1Cl = > 30 µM
15) Cc1nc(-c2ccccc2)sc1C(=O)NCC1CCCCC1 = > 30 µM
16) Cc1nc(C)c(C(=O)NC2CCCc3ccccc32)s1 (configuration not stated) = > 30 µM
17) O=C(Nc1cccc2ccccc12)c1nc2ccccc2s1 = > 30 µM
18) O=C(NC1CCCc2ccccc21)c1nc2ccccc2s1 (configuration not stated) = > 30 µM
19) O=C(NC12CC3CC(CC(C3)C1)C2)c1nc2ccccc2s1 = > 30 µM
20) Cc1nc(C(C)(C)C)sc1C(=O)NC12CC3CC(CC(C3)C1)C2 = > 30 µM
21) Cc1nc(-c2ccccc2)sc1C(=O)NC1CCCC1 = > 30 µM
22) O=C(Nc1nc2ccccc2s1)C12CC3CC(CC(C3)C1)C2 = > 30 µM
23) Cc1nc(-c2ccccc2)sc1C(=O)NC1CC1 = > 30 µM
24) Cc1nc(-c2ccccc2)sc1C(=O)N1CCOCC1 = > 30 µM
25) Cc1nc(-c2ccccc2)sc1C(=O)NC1CCCCC1 = > 30 µM
26) CCCCCn1/c(=N\C(=O)C23CC4CC(CC(C4)C2)C3)sc2ccccc21 = 1.62 µM
27) Cc1nc(-c2ccccc2)sc1C(=O)NC1CCCc2ccccc21 (configuration not stated) = > 30 µM
28) Cc1nc(-c2ccccc2)sc1C(=O)NCc1ccccc1 = > 30 µM
29) O=C(Nc1nc2ccccc2s1)c1cccc2ccccc12 = > 30 µM
30) Cc1nc(-c2ccccc2)sc1C(=O)NC12CC3CC(CC(C3)C1)C2 = > 30 µM
31) CCCCCn1/c(=N/C(=O)c2cccc(C(F)(F)F)c2)sc2ccccc21 = > 30 µM
32) Cc1nc(-c2ccccc2)sc1C(=O)NCc1ccc(F)cc1 = > 30 µM

###

target-system: Cannabinoid receptor 2 (Homo sapiens, UniProt P34972)
Sequence (P34972 whole entry): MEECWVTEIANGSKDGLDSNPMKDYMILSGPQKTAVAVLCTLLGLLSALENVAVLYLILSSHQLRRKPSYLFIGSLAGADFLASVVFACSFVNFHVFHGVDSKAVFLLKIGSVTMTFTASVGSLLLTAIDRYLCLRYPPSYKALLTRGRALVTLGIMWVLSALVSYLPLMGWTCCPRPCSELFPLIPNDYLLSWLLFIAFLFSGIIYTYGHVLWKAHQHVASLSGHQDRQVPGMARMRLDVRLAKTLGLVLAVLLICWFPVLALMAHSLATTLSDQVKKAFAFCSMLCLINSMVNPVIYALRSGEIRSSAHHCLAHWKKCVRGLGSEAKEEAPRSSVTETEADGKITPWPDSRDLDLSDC
protocol-description: Agonist activity at recombinant human CB2R expressed in CHOK1 cells assessed as inhibition of NKH477-stimulated intracellular cAMP levels after 30 mins by chemiluminescent detection based cAMP Hunter assay
Format: functional, cell-based
pEC50: −log10 of the molar value.
Parameter pEC50: see the listing below.
quantity-measured: pEC50

1. CCCCCn1/c(=N\C(=O)C23CC4CC(CC(C4)C2)C3)sc2ccccc21 = 7.24
2. CCCCCn1/c(=N/C(=O)c2cccc3ccccc23)sc2ccccc21 = 7.17
3. CCCCCn1/c(=N/C(=O)c2cccc(C(F)(F)F)c2)sc2ccccc21 = 6.51

###

target-system: Cannabinoid receptor 2 (Homo sapiens)
protocol-description: Antagonist activity at N-terminal Flag epitope tagged CB2 (unknown origin) expressed in HTLA cells assessed as decrease in CP55940-induced beta-arrestin recruitment pretreated with non-selective cannabinoid receptor agonist CP55940 for 30 mins and measured after 20 mins by Tango assay
Type: cell-based
quantity-measured: EC50

1. O=C(Nc1nc2ccccc2s1)c1cccc(C(F)(F)F)c1 = > 30 µM
2. Cc1nc(-c2ccccc2)sc1C(=O)NCc1ccccc1F = > 30 µM
3. Cc1nc(C)c(C(=O)NC2CCCc3ccccc32)s1 (configuration not stated) = 0.437 µM
4. Cc1nc(-c2ccccc2)sc1C(=O)N1CCOCC1 = > 30 µM
5. Cc1nc(-c2ccccc2)sc1C(=O)NCc1ccccc1 = > 30 µM
6. Cc1nc(C)c(C(=O)NC23CC4CC(CC(C4)C2)C3)s1 = > 30 µM
7. Cc1nc(-c2ccccc2)sc1C(=O)NC1CCCc2ccccc21 (configuration not stated) = > 30 µM
8. Cc1nc(-c2ccccc2)sc1C(=O)NC1CCCC1 = > 30 µM
9. CCCCCn1/c(=N/C(=O)c2ccc(C(F)(F)F)cc2)sc2ccccc21 = > 30 µM
10. Cc1nc(-c2ccccc2)sc1C(=O)NCc1ccc(F)cc1 = > 30 µM
11. Cc1nc(C)c(C(=O)NCc2ccccc2)s1 = > 30 µM
12. Cc1nc(-c2ccccc2)sc1C(=O)NC1CC1 = > 30 µM

###

Parameter pEC50: see the listing below.
target-system: Cannabinoid receptor 2 (Homo sapiens, UniProt P34972)
protocol-description: Agonist activity at N-terminal Flag epitope tagged CB2 (unknown origin) expressed in HTLA cells assessed as increase of beta-arrestin recruitment by Tango assay
Assay type: cell-based
pEC50: −log10 of the molar value.
quantity-measured: pEC50

1) Cc1nc(C)c(C(=O)NC23CC4CC(CC(C4)C2)C3)s1 = < 4.52
2) O=C(Nc1nc2ccccc2s1)c1cccc(C(F)(F)F)c1 = < 4.52
3) O=C(NC1CCCc2ccccc21)c1nc2ccccc2s1 (centres undefined) = < 4.52
4) CCCCCn1/c(=N/C(=O)c2cccc(C(F)(F)F)c2)sc2ccccc21 = 6.89
5) O=C(Nc1cccc2ccccc12)c1nc2ccccc2s1 = < 4.52
6) Cc1nc(-c2ccccc2)sc1C(=O)N1CCOCC1 = < 4.52
7) CCCCCn1/c(=N/C(=O)c2cccc3ccccc23)sc2ccccc21 = 7.89
8) CCCCCn1/c(=N/C(=O)c2ccc(C(F)(F)F)cc2)sc2ccccc21 = 5.60
9) CCCCNC(=O)c1sc(-c2ccccc2)nc1C = < 4.52
10) CCCCCCNC(=O)c1sc(-c2ccccc2)nc1C = < 4.52
11) Cc1nc(-c2ccccc2)sc1C(=O)NCc1ccccc1F = < 4.52
12) Cc1nc(-c2ccccc2)sc1C(=O)NC1CCCC1 = < 4.52
13) CCCCCn1/c(=N\C(=O)C23CC4CC(CC(C4)C2)C3)sc2ccccc21 = 7.58
14) O=C(NC12CC3CC(CC(C3)C1)C2)c1nc2ccccc2s1 = < 4.52
15) O=C(Nc1nc2ccccc2s1)c1cccc2ccccc12 = < 4.52
16) Cc1nc(-c2ccccc2)sc1C(=O)NCc1ccccc1 = < 4.52
17) Cc1nc(C)c(C(=O)NC2CCCc3ccccc32)s1 (centres undefined) = < 4.52
18) Cc1nc(-c2ccccc2)sc1C(=O)NC1CC1 = < 4.52
19) Cc1nc(-c2ccccc2)sc1C(=O)NC12CC3CC(CC(C3)C1)C2 = < 4.52
